experimental protocol: qHTS for Inhibitors of the Functional Ribonucleoprotein Complex (vRNP) of Lassa (LASV) Arenavirus: Viability assay - alamar blue signal for LASV Primary Screen (AID 1347083); also: nearly all actives have a fitted effect of over 80% in size
condition: cell viability, alamar blue fluorescence (LASV minigenome counter-screen); series mostly up to 57.5 µM
Results filed as inconclusive are left out. Activity calls are given as the source filed them. Calls follow the shape of the full dose curve; tested in HEK293 reporter line.
Lab note: assign the record to one of active, inactive

Input: # outcome recorded in this test, key = `CCn1nnc2c(N3CCOCC3)nc(-c3ccc(NC(=O)Nc4ccc(C(=O)N5CCN(C)CC5)cc4)cc3)nc21`
Output: active

Input: # outcome recorded in this test, key = `COC(=O)[C@H](NC(=O)c1cc(-c2ccccc2)nc2ccccc12)c1ccccc1`
Output: inactive

Input: # outcome recorded in this test, key = `NCc1c[nH]c(=S)n1[C@H]1CCc2c(F)cc(F)cc2C1`
Output: inactive

Input: # outcome recorded in this test, key = `C=CC[N+]1([C@H]2C[C@H]3[C@@H]4CC[C@H]5C[C@H](O)[C@@H](N6CCOCC6)C[C@]5(C)[C@@H]4CC[C@]3(C)[C@H]2OC(C)=O)CCCC1`
Output: inactive

Input: # outcome recorded in this test, key = `CCCCCCOC(=O)CCC`
Output: inactive

Input: # outcome recorded in this test, key = CC(=O)O[C@H]1C2[C@@H](OC(=O)Cc3ccccc3)[C@@H](C)C[C@]2(OC(C)=O)C(=O)/C(C)=C/[C@@H]2[C@H](CC[C@@]13CO3)C2(C)C (some centres not stated)
Output: inactive

Input: # outcome recorded in this test, key = `CC(C)NC[C@H](O)COc1cccc2ccccc12`
Output: inactive

Input: # outcome recorded in this test, key = `O=C1Nc2ccc(I)cc2C1=Cc1cc(Br)c(O)c(Br)c1`
Output: inactive

Input: # outcome recorded in this test, key = `C[C@H](NC(=O)[C@@H](O)c1cc(F)cc(F)c1)C(=O)N[C@@H]1C(=O)N(C)c2ccccc2-c2ccccc21`
Output: inactive

Input: # outcome recorded in this test, key = `O=C(O)c1cccnc1C(=O)O`
Output: inactive

Continuing:
Input: # outcome recorded in this test, key = CCCCC(C=O)NC(=O)C(CC(C)C)NC(=O)OCc1ccccc1 (configuration not stated)
Output: inactive

Input: # outcome recorded in this test, key = COc1cc2c(c(OC)c1OC)-c1c(cc3c(c1OC)OCO3)C1OC2[C@@H](C)[C@H]1C (some centres not stated)
Output: inactive

Input: # outcome recorded in this test, key = `C=CCNc1ncnc2ccc(Br)cc12`
Output: inactive

Input: # outcome recorded in this test, key = `Cc1cccc(/C=C/c2ccccc2)n1`
Output: inactive

Input: # outcome recorded in this test, key = `c1ccc(-c2ccc3ccccc3n2)cc1`
Output: inactive

Input: # outcome recorded in this test, key = `CC(=Cc1ccccc1)C=C1SC(=S)N(CC(=O)O)C1=O`
Output: inactive

Input: # outcome recorded in this test, key = `NCCCCCN`
Output: inactive

----------
experimental protocol: Primary qHTS to identify inhibitors of SARS-CoV-2 cell entry (AID 1645846); also: nearly all actives have a fitted effect of over 45% in size
condition: SARS-CoV-2 pseudovirus cell entry assay, luminescence; at 57.1 µM (top of the series) unless noted
Inconclusive results are not listed.
Each entry below carries its recorded activity change, negative = inhibition.
Response body: numeric value in %, unit text excluded.

Input: State its activity change, negative = inhibition: `CCCCCCCCCCCCc1ccc(S(=O)(=O)Nc2nncs2)cc1`
Output: -14.7

Input: State its activity change, negative = inhibition: `CC(C)(N)c1ccc(-c2nc3ccccc3nc2-c2ccccc2)cc1`
Output: -19.6

Input: State its activity change, negative = inhibition: `CNC(=O)[C@H](Cc1ccccc1)NC(=O)[C@H](CC(C)C)[C@H](CSc1cccs1)C(=O)NO`
Output: -35.2

Input: State its activity change, negative = inhibition: `CC[C@H](C)C(=O)O[C@H]1CCC=C2C=C[C@H](C)[C@H](CC[C@@H]3C[C@@H](O)CC(=O)O3)[C@H]21`
Output: -51.5

Input: State its activity change, negative = inhibition: `Cc1cc(C(=O)NOCCO)c(Nc2ccc(I)cc2F)n(C)c1=O`
Output: -17.4

Continuing:
Input: State its activity change, negative = inhibition: `O=C(Nc1ccc(Oc2ccnc3[nH]ccc23)c(F)c1)c1cccn(-c2ccc(F)cc2)c1=O`
Output: -21.9

Taken from PubChem BioAssay (NCATS).
